Where do the numbers come from? From ChEMBL document CHEMBL5291721.

# system-tested: 3',5'-cyclic-AMP phosphodiesterase 4A (Homo sapiens); note: assay procedure not described here
# Sequence (P27815 whole entry): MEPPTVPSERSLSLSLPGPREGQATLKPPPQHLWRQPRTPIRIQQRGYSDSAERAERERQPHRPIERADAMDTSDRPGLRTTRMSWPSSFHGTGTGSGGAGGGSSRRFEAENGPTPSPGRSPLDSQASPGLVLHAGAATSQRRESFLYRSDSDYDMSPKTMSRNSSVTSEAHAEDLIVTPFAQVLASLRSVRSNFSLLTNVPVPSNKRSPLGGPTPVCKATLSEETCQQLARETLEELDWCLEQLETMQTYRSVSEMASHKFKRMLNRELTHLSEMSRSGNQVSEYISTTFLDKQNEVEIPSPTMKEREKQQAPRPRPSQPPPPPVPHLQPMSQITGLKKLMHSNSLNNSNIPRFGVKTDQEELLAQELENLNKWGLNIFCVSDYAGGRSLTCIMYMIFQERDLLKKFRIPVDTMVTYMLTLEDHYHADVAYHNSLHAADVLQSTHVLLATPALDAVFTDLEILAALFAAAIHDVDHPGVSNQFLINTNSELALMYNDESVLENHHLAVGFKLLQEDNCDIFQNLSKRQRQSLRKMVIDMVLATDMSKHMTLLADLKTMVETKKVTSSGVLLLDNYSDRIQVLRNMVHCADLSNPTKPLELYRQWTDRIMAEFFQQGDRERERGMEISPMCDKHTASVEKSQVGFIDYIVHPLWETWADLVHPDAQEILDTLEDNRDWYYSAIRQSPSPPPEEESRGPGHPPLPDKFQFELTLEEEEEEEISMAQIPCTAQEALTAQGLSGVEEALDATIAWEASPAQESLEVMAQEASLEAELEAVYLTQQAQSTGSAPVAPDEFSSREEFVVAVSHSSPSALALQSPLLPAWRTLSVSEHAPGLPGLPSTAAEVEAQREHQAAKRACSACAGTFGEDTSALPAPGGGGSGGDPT
# Type: functional
value-type: AC50

> print(dat)
                                    compound   result
 1  CN1C(=O)N(C)C2C1N(C)C(=O)N2C (stereo not drawn)  > 30 µM
 2                         Nc1ccc(C(=O)O)cc1  > 30 µM
 3  CCOC(=O)C(c1c(O)c2ccccc2oc1=O)c1c(O)c2ccccc2oc1=O [ETHYL BISCOUMACETATE]  > 30 µM
 4  COc1cc2c(cc1OC)C(=O)C(CC1CCN(Cc3ccccc3)CC1)C2 (stereo not drawn)  > 30 µM
 5  Cc1c(O)cccc1C(=O)N[C@@H](CSc1ccccc1)[C@H](O)CN1C[C@H]2CCCC[C@H]2C[C@H]1C(=O)NC(C)(C)C  > 30 µM
 6  CCOC(=O)N[C@@H]1CC[C@@H]2[C@@H](C1)C[C@H]1C(=O)O[C@H](C)[C@H]1[C@H]2/C=C/c1ccc(-c2cccc(F)c2)cn1  > 30 µM
 7  CC1(C)O[C@@H]2C[C@H]3[C@@H]4C[C@H](F)C5=CC(=O)CC[C@]5(C)[C@H]4[C@@H](O)C[C@]3(C)[C@]2(C(=O)CO)O1 [FLURANDRENOLIDE]  > 30 µM
 8            CN(Cc1cc(Br)cc(Br)c1N)C1CCCCC1  26.3 µM
 9  CC(=O)OC[C@H]1O[C@@H](n2ccc(=O)[nH]c2=O)[C@H](OC(C)=O)[C@@H]1OC(C)=O [URIDINE TRIACETATE]  > 30 µM
10  O=C(COc1ccc(Cl)cc1)N1CCN(Cc2ccc3c(c2)OCO3)CC1 [FIPEXIDE]  > 30 µM
11  CCc1ccc(CCOc2ccc(CC3SC(=O)NC3=O)cc2)nc1 (stereo not drawn)  > 10 µM
12  CCC(Cc1c(I)cc(I)c(N)c1I)C(=O)O (stereo not drawn)  12.2 µM
13          Nc1nc(N)c2nc(-c3ccccc3)c(N)nc2n1  20.8 µM
